assay: yeast display, Sf9 membrane polyspecificity reagent, FACS + sequencing; frameworks hold sequencing errors
measured.metric: polyreactivity (PSR sort gate)

sequence.data	measured.metric	observed.measurement
QVQLVESGGGLVQAGGSLRLSCAASGRTFRGYVMGWYRQAPGKEREFVAAITRSDGSTYYADSVKGRFTISRDNAKNTVYLQMNSLKPEDTAVYYCAADLRRFQSYYYWGQGTQVTVSS	polyreactivity (PSR sort gate)	high polyreactivity
QVQLVESGGGLVQAGGSLRVSCAASGFTFPWYAMGWYRPAPGKERELVASISYRGDSTYYADSVKGRFTISRDNAKITVYLQMNSLKPEDTSVYYCNKRLDSYYLPGFDYWGQGTQVTVSS	polyreactivity (PSR sort gate)	low polyreactivity
QVQLVESGGGLVQAGGSLRLSCAASGITFLYYAMGWYRQAPGTERELVAAITSSGGRTYYADSVKGRFTISRDNAKNTVCLQMNSLKPEDTAVYYCAADSRTYNGGYYWGQGTQVTVSS	polyreactivity (PSR sort gate)	high polyreactivity
QVQLVESGGRLVQAGGSLRLSCAASGRTFYIYAMGWYRQAPGKERELVADISWSGGSTYYADSVKGRFTISRDNAKNTVYLQMNSLKPEDTAVYYCAADLYVYPNWYLYYYWGQGTQVTVSS	polyreactivity (PSR sort gate)	high polyreactivity

Entry "QVQLVESGGGLVQAGGSLRLSCAASGSIFYHYAMGWYRQAPGKERELVAGITSSGDRTHYADSVKGRFTISRDNAKNSVYLQMNSLKPEDTAVYYCNTATIHGTAYDYWGQGTQVTVSS" has what polyreactivity (PSR sort gate)?
low polyreactivity

Reference source: the nanobody polyreactivity screen of Harvey et al. (2022)
